Just for reference, patent US20250368742A1 is where these values come from.

Each entry below carries its recorded Max OD450.
# STUDY TARGET: shed MICA002 polypeptide (human) (UniProt Q29983)
# TEST PROTOCOL: capture ELISA (anti-hFc / antibody / shed antigen / biotin-6D4)
Just the number.

BINDER	Max OD450
#40 (antibody, V domains shown) VH: QVQLQQSGPELVKPGASVKVSCKASGYAFTKYNIYWVKQSHGKSLEWIGYIDPYNGGTVYNQKFKGKATLTVDKSSSTAYMHLNSLTSEDSAVYYCATTDGYSLFTYWGQGTLVTVSA VL: DIQMTQTTSSLSASLGDRVTITCSAGQGINNYLNWYQQKPDGTVKLLIFYTSSLQSGVPSRFSGSGSGADYSLTISNLEPEDIATYYCQQYSKLPLTFGAGTKLELK	2.89
#38 (antibody, V domains shown) VH: QVQLQQSGAELARPGASVKLSCKASGYTFSIHWMQWVKQRPGQGLEWIGAIYPGNGDTKYTQKFKGKATLTADKSSSTAYMQLSNLASEDSAVYYCATLYGNYEAYWGQGTLVTVSA VL: DIVLTQSPASLSASVGETVTITCGASENIYGALNWYQRKQGKSPQLLIYGTTNLADGMSSRFSGSGSGRQYSLKISSLHPDDVATYYCQNVLTTPPWTFGGGTKLEIK	3.32
6E1.1.12 (antibody, human IgG1, kappa, V domains shown) VH: QGQMQQSGAELVKPGASVKLSCKTSGFTFSDNYISWLKQKPGQSLEWIAWIYAGTGGSSYNQKFRDKAQLTVDTSSRTAYMQLSSLTTEDSAIYYCARHDYYGTSGAWFAYWGRGTLVTVSA VL: DVLMTQTPLSLPVSLGDQASISCRSSQHIVHSNENTYLEWYLQKPGQSPKLLIYKVSNRFSGVPDRFSGSGSGTDFTLKISRVEAEDLGVYYCFQGSHVPWTFGGGTKVEIKR	3.35

get_value(item= #31 (antibody, V domains shown) VH: EVQLQQSGPELVKPGASVKVSCKASGYAFTKYNIYWVKQSHGKSLEWIGYIDPYNGGTVQNQKFKGKATLTVDKSSSTAYMHLNSLTSEDSAVYYCATTDGYSLFTYWGQGTLVTVSS VL: DIQMTQTTSSLSASLGDRVTISCRASQDIGNYLNWYQQKPDGTVKLLIYYTSRLHSGVPSRFSGSGSGTDYSLTISNLEQEDIATYFCQQGNTLPFTFGSGTKLEIK , readout=Max OD450) returns 3.16

Measured Max OD450 of 1D5 (antibody, human IgG1, kappa, V domains shown) VH: EIQLQQSGPELVKPGASVKVSCKASGYAFTSQNIYWVKQSHGKSLEWIGYIEPYNVVPMYNPKFKGKATLTVDKSSSSAYIHLNSLTSEDSAIYYCARSGSSNFDYWGQGTTLTVSS VL: EIILTQSPTTMAASPGEKITITCSASSSISSHYLHWYQQKSGFSPKLLIYRTSNLASGVPARFSGSGSGTSYSLTIGTMEAEDVATYYCQQGSSLPLTFGAGTKVEIKR : 3.42

#36 (antibody, V domains shown) VH: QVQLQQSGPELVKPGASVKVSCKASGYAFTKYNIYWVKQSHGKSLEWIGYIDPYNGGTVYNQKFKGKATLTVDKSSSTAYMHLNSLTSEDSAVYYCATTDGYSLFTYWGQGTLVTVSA VL: DIQMTQTTSSLSASLGDRVTISCRASQDISNYLNWYQQKPDGTVKLLIYYTSRLHSGVPSRFSGSGSGTDYSLTISNLEQEDIATYFCQQGNTLPFTFGSGTKLEIK yielded Max OD450 of 3

According to the records, this binder 13A9 (antibody, human IgG1, kappa, V domains shown) VH: QVQLQQSGAELVRPGTSVKVSCKASGYAFTNYLIEWVKQRPGQGLEWIGAINPGSGATNYNEKFKDKARLTADKSSNTAYLQFSSLTSDDSAVYFCARFLGNYFDNWGQGATLTVSS VL: DIQMTQSPASLSASVGETVTITCRASGNIHSYLAWYQQKQGKSPQLLVYYAETLADGVPSRFSGRGSGTQYSLKINSLQPEDFGSYFCQQFWTTPYTFGGGTKVEIKR displays Max OD450 of 3.1

Field Max OD450 (entry #34 (antibody, V domains shown) VH: QVQLKQSGPELVKPGASVKVSCKASGYAFTKYNIYWVKQSHGKSLEWIGYIDPYNGGTVQNQKFKGKATLTVDKSSSTAYMHLNSLTSEDSAVYYCATTDGYSLFTYWGQGTLVTVSS VL: DIVLTQSPTTMAASPGEKITITCSASSSISSNYLHWYQQKPGFSPKLLIYRTSNLASGVPARFSGSGSGTSYSLTIGTMEAEDVATYYCQQGSSIPFTFGSGTKLEIK ) reads 2.75

// field: Max OD450; key: #39 (antibody, V domains shown) VH: QVQLQQSGAELVRPGTSVKVSCKASGYAFTDYLIEWVKQRPGQGLEWIGGINPGSGSTNYNEKFKGKAILTADKSSSTAYMQLSSLTSDDSAVYFCARLDGNYVGYWGQGTTLTVSS VL: DILLTQSPASLSASVGETVTITCRASGNIHNYLAWYQQKQGKSPQLLVYHAKTLADGVPSRFSGSGSGTQYSLKINSLQPEDFGSYYCQHFWSTPWTFGGGTKLEIK ; value = 1.01

Just so you know, measured Max OD450 for 3F9 (antibody, human IgG1, kappa, V domains shown) VH: QVQLVESGGGLVKPGGSLRLSCAASGFTFSNYAMSWIRQAPGKGLEWVSYISPGGDYIYYADSVKGRFTISRDNAKNSLYLQMNSLRAEDTAVYYCTTDRRHYGSYAMDYWGQGTLVTVSS VL: DIVMTQSPLSLPVTPGEPASISCRSSKSLLHSNLNTYLYWFLQKPGQSPQILIYRMSNLASGVPDRFSGSGSGTAFTLKISRVEAEDVGVYYCMQHLEYPFTFGPGTKLEIKR came out at 3.3
